- protocol: Photostability in ethanol under artificial sunlight (12,000 lx), LC-MS/MS
- Format: physicochemical
- condition.label: ethanol solution in quartz cells, 1 µM in ethanol, shading (covered with aluminum foil during irradiation), 25 °C; read-out: half-life (t1/2) of degradation (converted)
- Description: The relative irradiance of artificial sunlight at wavelengths of 300 to 800 nm is almost equal to that of natural sunlight, according to the manufacturer. […] Solutions of MK-4 and MKH derivatives in ethanol (1 µM) were irradiated with artificial sunlight (SOLAX 100 W XC-100 B, Seric Ltd., Tokyo, Japan) at 12,000 lx in quartz cells. Illuminance was measured using a digital luminometer (LX-1108, Mother Tool). […]
measured.attribute: half-life at 1 µM (min)
Answers are plain numbers, in min.

In plain terms, CC(C)=CCC/C(C)=C/CC/C(C)=C/CC/C(C)=C/Cc1c(C)c(OC(=O)CCC(=O)O)c2ccccc2c1OC(=O)CCC(=O)O [MKH-SUC, menahydroquinone-4 1,4-bis-hemisuccinate] has a documented half-life at 1 µM of 47.1

// provenance: paper PMC6566782
